# System: Staphylococcus aureus
# test.description: Antibacterial activity against methicillin-resistant Staphylococcus aureus at 100 ug/disc
# Assay type: functional, organism-based
Activity calls are given as the source filed them. No cut-off for these calls is given here.
value.type: Activity

>>> observed("CC(=O)/C=C/C(=C/[C@H](C)O)CO")
"inactive"
>>> observed("C[C@H](O)/C=C/[C@@](O)(CO)[C@@H]1O[C@H]1C")
"inactive"
>>> observed("C[C@H](O)/C=C(/C=C/[C@@H](C)O)CO")
"inactive"
>>> observed("C[C@H](O)/C=C(/C=C/[C@H](C)O)CO")
"inactive"

Attention now shifts to the item below.
Entry `C[C@H](O)CC1=C[C@H](O)[C@@H](C)OC1=O` ; Activity = inactive
